src = patent US20230286973A1

assay: Liver Microsome Stability Assay (monkey); conditions: monkey liver microsomes, with NADPH, 1.0 uM compound
assay-metric: Liver Microsome Stability (Multiple Species): Monkey - % Remaining after 30 min w/NADPH (%)

See these solved cases before continuing.
compound	observed-value
O=C(O)CCn1cccc1C(=O)Nc1nc([C@H]2CCCN2c2ccccc2)cs1 [Compound C12]	90.9
O=C(Nc1nc([C@H]2CCCN2c2ccccc2)cs1)c1cccn1CCCc1cccnc1 [Compound E10]	0.06

1. CC(C)n1cc(/C=C/c2csc(NC(=O)c3cccn3Cc3ccnc(F)c3)n2)nc1C#N [Compound B93]
2. Cc1ccc(N2CCC[C@@H]2c2csc(NC(=O)c3cccn3Cc3ccncc3)n2)nc1 [Compound E62]
Just curious, which one has the larger Liver Microsome Stability (Multiple Species): Monkey - % Remaining after 30 min w/NADPH reading, 1 or 2 ? Your choice should be expressed through its label.
2
(2: 0.19%, 1: 0.03%)
